These entries and their values trace back to patent US5227469A.

assayed.system: GP IIb IIIa (Homo sapiens, UniProt P05106+P08514)
Construct: GP IIb IIIa was purified from outdated human platelets as previously described; from tissue; host or cells: outdated human platelets
assay.overview: Fg/GP IIb IIIa solid phase ELISA (inhibition of GP IIb IIIa binding to immobilized fibrinogen)
setup.conditions: Table III; dilution giving half maximal response in ELISA; fractions from 310 g P. ornata
Tag: 1 if measured half maximal dilution is not below 1000, -1 if it is.

Worked set:
# seq.string, assayed.system, assigned.class
data = [
    ("IYVRPTNDELNYCGDFRELGQPDKKCRCDGKPCTVGRCKFARGDNDDKCISA [ornatin B, ornatin isoform isolated from P. ornata]", "GP IIb IIIa (Homo sapiens, UniProt P05106+P08514)", 1),
    ("IYVRPTKDELLYCGEFRELGQPDKKCRCDGKPCTVGRCKFARGDADDKCTSA [ornatin C, ornatin isoform isolated from P. ornata]", "GP IIb IIIa (Homo sapiens, UniProt P05106+P08514)", 1),
    ("IYVRPTKDELLYCGEFRELGQPDKKCRCDGKPCTVGRCNFARGDNDDKCI [ornatin E, ornatin isoform isolated from P. ornata]", "GP IIb IIIa (Homo sapiens, UniProt P05106+P08514)", 1),
    ("IPQCRDVKESGQPNDKCRCNGKPCTVGKCTIARGDDNDKCT [ornatin A2, ornatin isoform isolated from P. ornata]", "GP IIb IIIa (Homo sapiens, UniProt P05106+P08514)", -1),
]

Now for another entry.
Determine whether this sequence has half maximal dilution no lower than 1000: IYVRPTKDELLYCGEFRELGQPDKKCRC [ornatin D, ornatin isoform from P. ornata]
1

====

assayed.system: GP IIb IIIa (Homo sapiens, UniProt P05106+P08514)
Construct: GP IIb IIIa was purified from outdated human platelets as previously described; from tissue; host or cells: outdated human platelets
assay.overview: Fg/GP IIb IIIa solid phase ELISA (inhibition of GP IIb IIIa binding to immobilized fibrinogen)
setup.conditions: Table III; total units per mg total protein
quantity.measured: specific activity (U/mg)
Write the answer as a number in U/mg, unit excluded.

# seq.string, quantity.measured, measure.unit, recorded.result
records = [
    ("IYVRPTKDELLYCGEFRELGQPDKKCRC [ornatin D, ornatin isoform from P. ornata]", "specific activity (U/mg)", "U/mg", 49615),
]

Could you now look at the following sequence, please?
Lab note: need specific activity (U/mg) for IYVRPTKDELLYCGEFRELGQPDKKCRCDGKPCTVGRCNFARGDNDDKCI [ornatin E, ornatin isoform isolated from P. ornata] on GP IIb IIIa (Homo sapiens, UniProt P05106+P08514), anyone have it?
42370

====

Entries annotated with measured total units
assayed.system: GP IIb IIIa (Homo sapiens, UniProt P05106+P08514)
Construct: GP IIb IIIa was purified from outdated human platelets as previously described; from tissue; host or cells: outdated human platelets
assay.overview: Fg/GP IIb IIIa solid phase ELISA (inhibition of GP IIb IIIa binding to immobilized fibrinogen)
setup.conditions: Table III; half maximal dilution multiplied by total volume in ml

Reference set (3 entries):
# seq.string, total units
measured = [
    ("IYVRPTNDELNYCGDFRELGQPDKKCRCDGKPCTVGRCKFARGDNDDKCISA [ornatin B, ornatin isoform isolated from P. ornata]", 608),
    ("IPQCRDVKESGQPNDKCRCNGKPCTVGKCTIARGDDNDKCT [ornatin A2, ornatin isoform isolated from P. ornata]", 405),
    ("IYVRPTKDELLYCGEFRELGQPDKKCRCDGKPCTVGRCKFARGDADDKCTSA [ornatin C, ornatin isoform isolated from P. ornata]", 2211),
]

Could you now look at the following sequence, please?
Record request: total units value, item IYVRPTKDELLYCGEFRELGQPDKKCRCDGKPCTVGRCNFARGDNDDKCI [ornatin E, ornatin isoform isolated from P. ornata]
1805

====

Entries annotated with measured specific activity (U/mg)
assayed.system: GP IIb IIIa (Homo sapiens, UniProt P05106+P08514)
Construct: GP IIb IIIa was purified from outdated human platelets as previously described; from tissue; host or cells: outdated human platelets
assay.overview: Fg/GP IIb IIIa solid phase ELISA (inhibition of GP IIb IIIa binding to immobilized fibrinogen)
setup.conditions: Table III; total units per mg total protein
Write the answer as a number in U/mg, unit excluded.

Reference set (2 entries):
# seq.string, measure.unit, recorded.result
records = [
    ("IPQCRDVKESGQPNDKCRCNGKPCTVGKCTIARGDDNDKCT [ornatin A2, ornatin isoform isolated from P. ornata]", "U/mg", 44505),
    ("IYVRPTNDELNYCGDFRELGQPDKKCRCDGKPCTVGRCKFARGDNDDKCISA [ornatin B, ornatin isoform isolated from P. ornata]", "U/mg", 50670),
]

Record request: specific activity (U/mg) value, item IYVRPTKDELLYCGEFRELGQPDKKCRCDGKPCTVGRCKFARGDADDKCTSA [ornatin C, ornatin isoform isolated from P. ornata]
39060
